- Experimental system: Dickkopf-related protein 1 (Homo sapiens) (UniProt O94907)
- Sequence (O94907 whole entry, looked up): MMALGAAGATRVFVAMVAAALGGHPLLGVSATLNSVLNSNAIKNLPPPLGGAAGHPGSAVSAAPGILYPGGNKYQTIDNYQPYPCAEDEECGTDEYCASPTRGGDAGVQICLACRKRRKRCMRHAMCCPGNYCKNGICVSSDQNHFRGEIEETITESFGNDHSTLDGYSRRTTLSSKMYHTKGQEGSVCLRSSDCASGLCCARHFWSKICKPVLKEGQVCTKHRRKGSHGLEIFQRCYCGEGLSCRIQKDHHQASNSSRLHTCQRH
- Assay method text: small molecules binding DKK1 protein – biochemical, small-molecule microarray, 635 nm fluorescence scan, primary screen (AID 1106);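 note: score merges emission near 667 nm with signal to noise over three replicate slides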
- Condition notes: higher = more signal
Classification field: enter rule met for composite z-score values not below -0.3, rule not met for values below it.

Known results for compounds:
- Compound: "CCOC(=O)C[C@H]1[C@H](OC(=O)Cc2ccc3c(c2)OCO3)[C@@H](NC(=O)c2ccc3ccccc3n2)c2cc(OCCCO)ccc2N1C(=O)Cc1ccc(OC)cc1"
  Class assignment: "rule met"
- Compound: "C[C@@H]1NC(=O)C([C@@H](C)OCc2ccccc2)NC(=O)[C@@]23C(=O)N[C@@H](Cc4ccccc4)C2[C@H](C)[C@@]2(C)O[C@H]2C3/C=C/C/C=C\\CNC1=O (some centres undefined)"
  Class assignment: "rule met"
- Compound: "[N-]=[N+]=NCc1ccccc1[C@@H]1OC(c2ccc(OCCCO)cc2)=N[C@]1(Cc1ccccc1N=[N+]=[N-])C(=O)O"
  Class assignment: "rule met"

Check the entry C=CCC(OC(C)=O)[C@@H]1[C@@H](N(Cc2ccc(-c3cccc(C(F)(F)F)c3)o2)C(=O)Cc2ccc(F)cc2)c2cc(OCCCO)ccc2N1C(=O)Cc1ccc2ccccc2c1 (some centres undefined) : does composite z-score equal or exceed -0.3?
rule met

Please answer likewise for O=C(NC1CC1)[C@@H]1c2ccccc2C(=O)N(CC23CC4CC(CC(C4)C2)C3)[C@H]1c1ccc(CO)cc1
rule met

Please answer likewise for CCCNC(=O)[C@@]1(Sc2ccc(C)cc2)CC(=O)N(Cc2ccccc2Cl)[C@@H]1c1ccc(CO)cc1I
rule not met

Please answer likewise for CC(C)(C)N1CC=CC23O[C@@H]4/C=C\CCCOC(=O)C4[C@H]2C(=O)N(CCCCCO)[C@@H]3C1=O (some centres undefined)
rule not met

Please answer likewise for [N-]=[N+]=Nc1ccccc1C[C@@]1(C(=O)NCC(O)CO)N=C(c2ccc(OCCCO)cc2)O[C@@H]1c1ccccc1 (some centres undefined)
rule not met
